- System: Candida albicans
- PROCEDURE SUMMARY: In vitro antifungal activity, MIC (Method A)
- Format: cell-based
- CONDITION: Candida albicans, 72 h, pH 7, Candida albicans CY1005, 1×10^5 cells/ml, 3 days, 27° C.
Counter-ions that a name gives are not always drawn.
READOUT LABEL: MIC (µg/mL)

> print(dat)
                                   compound  readout.label  unit.symbol  number
1  CCCCCCC/C=C\[C@@H]1OC[C@H](C)[C@H](OCCC)[C@H]1OC(=O)CN [Example 22, trifluoroacetic acid salt]            MIC        µg/mL      50
2  CCCCCCC/C=C/[C@@H]1OC[C@H](C)C2(OCCO2)[C@H]1OC(=O)CN.O=C(O)C(F)(F)F            MIC        µg/mL      25
3  CCCCCCCCC[C@@H]1OC[C@H](C)[C@H](OC)[C@@H]1OC(=O)CN.O=CO            MIC        µg/mL      25
4  CCCCCCCCO[C@@H]1CCC(C)(C)[C@H](OC)[C@@H]1Cn1ccnc1            MIC        µg/mL    12.5
5  CCCCCCC/C=C\[C@@H]1OC[C@H](C)[C@H](OC)[C@H]1OC(=O)CN [Example 1, acetic acid salt]            MIC        µg/mL     100

I: CCCCCCCCC[C@@H]1OC[C@H](C)C=C1Cn1ccnc1
II: CCCCCCCC/C=C/[C@@H]1OC[C@H](C)[C@H](OC)[C@H]1OC(=O)CN.O=C(O)C(F)(F)F
Task item: Consider entries I and II . Which has the numerically lower MIC? // respond with label for picked entry
Reply: I
(I: 25 µg/mL, II: 100 µg/mL)

This collection of values is drawn from patent US5719291A.
